// data source = paper PMC7556464

# TARGET_UNDER_TEST: T1, factor H binding protein (fHbp) variant 1.1 (Neisseria meningitidis MC58, fHbp v1.1, strain)
# T1 construct: also called fHbp v1.1; fHbp v1; source: E. coli BL21(DE3), purified (Ni-NTA; SEC when necessary)
# T1 chain: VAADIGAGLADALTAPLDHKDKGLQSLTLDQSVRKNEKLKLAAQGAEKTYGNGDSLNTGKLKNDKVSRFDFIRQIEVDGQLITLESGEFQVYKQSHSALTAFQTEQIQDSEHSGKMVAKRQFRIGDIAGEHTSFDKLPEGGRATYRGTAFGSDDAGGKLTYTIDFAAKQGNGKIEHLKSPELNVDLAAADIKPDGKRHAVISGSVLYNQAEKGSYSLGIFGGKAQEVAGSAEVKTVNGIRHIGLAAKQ
# PROTOCOL_DESCRIPTION: SPR
# CONDITIONS: both partners purified
READOUT_LABEL: koff (s⁻¹)
Unit s⁻¹ implied. Number only.

1. human anti-fHbp mAb 3G7 (antibody, V domains shown, source: Expi293, transient transfection, purified (protein G Sepharose)) VH: EVQLLQSGGGLVKPGGSLRLSCAASGFPFSSYYMSWIRQAPGKGLEWVSDINNSGNVKEYADFVKGRLTISRDNVKNSMYLHMNSLRVEDTAVYYCARNRGRFDVWGQGTLVTVSA VL: EIVLTQSPGTLSLSPGETATLSCRASQMISSPFLAWYQQRRGQAPRLLIYGASTRATDTPDRFRGSGSGTDFILTISRLEPEDFAVYYCQYYDDSPFTFGQGTKLEIK | 0.000311

INPUT: For the binder shown here, human anti-fHbp mAb 2C8 (antibody, V domains shown, source: Expi293, transient transfection, purified (protein G Sepharose)) VH: QVQLVQSGAEVKKPGSSVKVSCKASGGTVINYPISWVRQVPGQGLEWMGRLVPLFGTPNYGQKFQGRITITADKSTSAAYMELIGLKSEDTAVYYCARGDTAMAPFDYWGHGTLVTVSS VL: QLVLTQPPSVSVAPGKTATITCGGNNVGGKTVHWYQQKPGQAPVLVMSYDSDRPSGIPERFSGSNSGNTATLTISRVEAEDEADYYCQVWHGNDDHWVFGGGTKLTVL , give the reported koff.
OUTPUT: 0.000388
